src = the nanobody polyreactivity screen of Harvey et al. (2022)

- ASSAY_EXPLANATION: yeast display, Sf9 membrane polyspecificity reagent, FACS + sequencing; frameworks hold sequencing errors
PROPERTY_LABEL: polyreactivity (PSR sort gate)

[
  {
    "RESIDUE_STRING": "QVQLVESGGGLVQAGGSLRLSCAASGFIFGGYAMGWYRQAPGKERELVAAISYGGGSTYYADSVNGRFTISRYNAKNTVYLQMNSLKPEDTAVYYCAADIPGYRYTGYRRGYWGQGTQVTVSS",
    "VAL": "high polyreactivity"
  },
  {
    "RESIDUE_STRING": "QVQLVESGGGLVQAGGSLRLSCAASGSTFRYNAMGWYRQAPGTERELVAAINWSGSSTYYADSVKGRFTISRDNAKKTVYLQMNSLKPEDTAVYYCAAERPWYTKWGEYWGQGTQVTVSS",
    "VAL": "high polyreactivity"
  },
  {
    "RESIDUE_STRING": "QVQLVESGGGLVQAGGSLRLSCAASGSIFSAYAMGWYRQAPRKEREFVAAITRRGGNTYYADSVKGRFTISRDNAKNTVYLQMNSLKPEDTAVYYCAAGFYYVYVWLGEYWGQGTQVTVSS",
    "VAL": "low polyreactivity"
  },
  {
    "RESIDUE_STRING": "QDQLVESGGGLVQAGGILSLSCAASGSTFSYYAMGWYRQAPGTETELVAAISSRGGSTYYADSVKGRFTISRDNAKNPVYLQMNSLNPEDTAVDYCNADHKFRSSVSGDHDYWGQGTQVTVSS",
    "VAL": "high polyreactivity"
  },
  {
    "RESIDUE_STRING": "QVQLVESGGGLVQAGGSLRLSCAASGFIFRYYAMGLYRHAPGKERELVASISSGGSTDYADSVKGRFTISRDNAKNTVYLQMNSLKPEDTAVYYCAAGYRSLSLHVGSYRYYYRGQGTQVTVSS",
    "VAL": "high polyreactivity"
  },
  {
    "RESIDUE_STRING": "QVQLVESGGGLVQAGGRLRLSCAASGRTFANYARGGYRQAPGTERELVAAITSGGRTYYADSVKGRFTISRDNAKNTVYLQMNSLKPEDTPVYYCAAEITYLYDYWGQGTQVTVSS",
    "VAL": "high polyreactivity"
  },
  {
    "RESIDUE_STRING": "QVQLVESGGGLVQAGGSLRLSCAASGSTFTRYAMGWYRQAPGKERELVAAISSSAGRTYYADSVKGRFTISRDNAKNTVYLQMNSLKPEDTAVYYCAATRVYAGAQYDYWGQGTQVTVSS",
    "VAL": "high polyreactivity"
  },
  {
    "RESIDUE_STRING": "QVKLVESGGGLVQAGGSLRLSCAASGRIFIEYARGWYRQAPGKERELVASSTSSGGRTTYADSVKGRFTISRDNAKNTVYLQINSLKPEDTAVYYCNKDYYPRGHTRFGYWGVGTQVTVSS",
    "VAL": "low polyreactivity"
  }
]

Query string: Which polyreactivity (PSR sort gate) reading was recorded for the sequence QVQLVESGGGLVQAGGSLRLSCAASGSIFDYYAMGWYRQAPGKERELVAAISTSTSSTYYADSVKGRFTISRDNAKNTVYFQMNSLKPEDTAVYYCAAEGESQPESPGYDYWGQGTQVTVSS ?
Result string: low polyreactivity

Query string: Now this one: QVQLVESGGGLVQAGGSLRLSCAASGRIFGPYTMGWYRQEPGKERELVAAITGRVVSTYYADSVKGRFTISRDNAKNTVYLQMNSLQPEDTAVYYCAARIYYYNTRGDYWAQGTQVTVSS
Result string: high polyreactivity

Query string: Entry to check: QVQLVESGGGLVQAGGSLRLSCAASGITFGNYAMGWYRQAPGKDRELVAAITGSGGRTYYADSVKGRFTISRDNAKNTVYLQMNSLKPEDTAVYYCNRRQYGRKKQYDYWGQGTQVTVSS
Result string: low polyreactivity

###

- ASSAY_EXPLANATION: yeast display, Sf9 membrane polyspecificity reagent, FACS + sequencing; frameworks hold sequencing errors
PROPERTY_LABEL: polyreactivity (PSR sort gate)

[
  {
    "RESIDUE_STRING": "QVQLVESGGGLVQAGGSLRLSCAASGRIFFRYAMGWYRPAPGKEREFVAAISGSAGSTYYADSVKGRFKISRDNAKNTVYLQMNSLKPEDTAVYYCAARKAKVSNGLKYDYWGQGTQVTVSS",
    "PROPERTY_LABEL": "polyreactivity (PSR sort gate)",
    "VAL": "high polyreactivity"
  },
  {
    "RESIDUE_STRING": "QVQLVESGGGLVQAGGILRLSCAASGIIFRKNAMGWYRQAPGKERELVAAISSTGASTNYADSVKGRFTISRDNAKNTVYLQMNSLKPEDTAVYYCAASRTRYWKYDYWGPGTQVTVSS",
    "PROPERTY_LABEL": "polyreactivity (PSR sort gate)",
    "VAL": "high polyreactivity"
  },
  {
    "RESIDUE_STRING": "QVQLVESGGGLVQAGGILRLSFAASGRIFTHYAMAGYRPAPGKERELVAAIRYSGGRTYYADSVKGRFTLSRDNAKNTVYLQMNSRKPEDTAVYYCAAEGFGGSFRSFYTIYDYWGQGTLVTVSS",
    "PROPERTY_LABEL": "polyreactivity (PSR sort gate)",
    "VAL": "high polyreactivity"
  },
  {
    "RESIDUE_STRING": "QVQLVESRGGLVQAGGSLRLSCAASGFTFDIYAMGWYRQAPGKERELVAAINYSGARTYYADSVKGRFTISRDNAKNTVYLQMNSLNPEDTAVYYCNRAARIKYDYWGQGTQVTVSS",
    "PROPERTY_LABEL": "polyreactivity (PSR sort gate)",
    "VAL": "high polyreactivity"
  },
  {
    "RESIDUE_STRING": "QDQLVESGGGLFQAGGSLRLSCAASGFTFVDYTMGWYRQEPGKEREFVAAISSSGGSTYYADSVKGRITISRDYAKNTVYFQMNSLKPEDTAVYYCKADAINKRGGRDYWGQGTQVTVSS",
    "PROPERTY_LABEL": "polyreactivity (PSR sort gate)",
    "VAL": "high polyreactivity"
  },
  {
    "RESIDUE_STRING": "QVQLVESGGGLVQAGGSLRLSCAASGRIFTGYAMGWYRQAPGKERELVAAISSSGGTTYYADSVKGRFTISRDNAKNTVYLQMNSLKPEDTAVYYCATDYSYSVDALKYLLYDYWGQGTQVTVSS",
    "PROPERTY_LABEL": "polyreactivity (PSR sort gate)",
    "VAL": "low polyreactivity"
  },
  {
    "RESIDUE_STRING": "QVQLVESGGGLVQAGGSLRFSCAASGSIFQPYAMGWSRQAPGKERAFVAAISRSGGITYYADSVKGRFTISRDNAKNTVYLQMNSLKPEDTAVYYCAADYILWKGSNSYYYAGYYYWGQGTQVTVSS",
    "PROPERTY_LABEL": "polyreactivity (PSR sort gate)",
    "VAL": "low polyreactivity"
  },
  {
    "RESIDUE_STRING": "QVQLVESGGGLVQAGGSLRLSCAASGIISGDYAMGWYRQAPGKERELVARITSGDSTNYADSVKGRFTISRDNAKNTVYLQMNSLKPEDTAVYYCAAKRYVFQNDYWGQGTQVTVSS",
    "PROPERTY_LABEL": "polyreactivity (PSR sort gate)",
    "VAL": "low polyreactivity"
  },
  {
    "RESIDUE_STRING": "QVQLVESGGGIDQAGGSLRLICAASGRTFTQYAMRWSRQAHGKERELVAAITRSGGSTYYADSVKGRFTISRDNAKNTVYVLMNILKPEDTAVYYCAKRPAYRSTQTFDFWGQGTQVTVSS",
    "PROPERTY_LABEL": "polyreactivity (PSR sort gate)",
    "VAL": "high polyreactivity"
  },
  {
    "RESIDUE_STRING": "QVQLVESGGGLVQAGGSLRLSCAASGSIFASYAMGRYRQAPGKERELVAAISRSGGSTYYADSVKGRFTISRDNAKNTVYLQMNSLKPEDTAVYYCATGKIREDDYWGQGTQVTVSS",
    "PROPERTY_LABEL": "polyreactivity (PSR sort gate)",
    "VAL": "high polyreactivity"
  }
]

Read the next record carefully.
Query string: Give its polyreactivity (PSR sort gate) value. Item: QVQLVESGGGLVQAGGSLRLSCDAYGSTFERYVMGWYCQRLGKKGSWLPVLNHNGGSTYYADSVKGRFTISRDNAKNTVYLQMNSLKPEVTAVYYCAPSFRTVLDDGYWGQGSQVTVSS
Result string: low polyreactivity

###

- ASSAY_EXPLANATION: yeast display, Sf9 membrane polyspecificity reagent, FACS + sequencing; frameworks hold sequencing errors
PROPERTY_LABEL: polyreactivity (PSR sort gate)

Illustrative cases are given below, each with its answer.
[
  {
    "RESIDUE_STRING": "QVQLVESGGGLVQAGGSLRLSCAASGFTFTNYAMGWYRQAPGKERELVAAINSSGSTNYADSVKGRFTISRDNAKNTVYLQMNSLKPEDTAVYYCAVDYSYWVHGFWDDYDYWGQGTQVTVSS",
    "VAL": "low polyreactivity"
  },
  {
    "RESIDUE_STRING": "QVQLVESGGGLVQAGGSLRLSCAASGFTFPYYAMGWYREAPGKERELVAAISFSGGRTYYADSVKGRFTISRDNAKNTVYLQMNSLKPEDTAVYYCAAAKTYYRYNYWGQGTQVSVSS",
    "VAL": "high polyreactivity"
  },
  {
    "RESIDUE_STRING": "QVQLVESGGGLVQAGGSLRLSCAASGSIFGSNGMGWSRQAPGKERELVAAISSGDSTNYADSVKGRFTISRDNAKNTVYLQMNSLKPEDTAVYSCERWGLGDYWGQGTQVTVSS",
    "VAL": "low polyreactivity"
  },
  {
    "RESIDUE_STRING": "QVQLVESGGGLVQAGGSLRLSCAASGFTFLSYTMGWYRQEPGKERELVASITASGTRTYYADSVKGRFTISRDNAKNTVYLQMNSLKPDDTAVYYCAARRSGSGSHDYGYWGQGTQVTVSS",
    "VAL": "low polyreactivity"
  }
]

Query string: Report polyreactivity (PSR sort gate) for QVQLVESGGGLVQAGGSLRLSSAASGITFPRYAMGWYRQAPGKERELVAAITRRGGSTYYADSVKGRFTISRDNAKNTVYLQMNSLKPEDTAVYYCNTDMRYSYYLPGYDYWGQGTQVTVSS please.
Result string: high polyreactivity
